biological target: UniProt:P43116
Sequence (P43116 whole entry): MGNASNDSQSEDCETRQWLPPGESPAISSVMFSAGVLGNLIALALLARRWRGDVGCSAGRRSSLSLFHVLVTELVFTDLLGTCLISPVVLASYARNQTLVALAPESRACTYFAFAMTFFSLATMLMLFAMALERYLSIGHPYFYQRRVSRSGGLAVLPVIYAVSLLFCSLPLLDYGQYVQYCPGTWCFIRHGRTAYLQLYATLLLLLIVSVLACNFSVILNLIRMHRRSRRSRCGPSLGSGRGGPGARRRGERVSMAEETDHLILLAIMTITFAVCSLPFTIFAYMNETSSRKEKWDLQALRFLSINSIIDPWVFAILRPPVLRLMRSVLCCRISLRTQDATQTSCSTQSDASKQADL
reported_property: Ki (µM)

# cpd_smiles, quantity_unit, endpoint_value
data = [
    ("Cc1ccc(S(=O)(=O)NC(=O)NCCc2ccc(-c3c(C(=O)N(C)C)sc4c(C)cc(C)cc34)cc2)cc1", "µM", 3.33),
]

====

molecular target: Prostaglandin E2 receptor EP4 subtype (Homo sapiens); experiment: Binding affinity to EP4 receptor
Sequence (P35408 whole entry): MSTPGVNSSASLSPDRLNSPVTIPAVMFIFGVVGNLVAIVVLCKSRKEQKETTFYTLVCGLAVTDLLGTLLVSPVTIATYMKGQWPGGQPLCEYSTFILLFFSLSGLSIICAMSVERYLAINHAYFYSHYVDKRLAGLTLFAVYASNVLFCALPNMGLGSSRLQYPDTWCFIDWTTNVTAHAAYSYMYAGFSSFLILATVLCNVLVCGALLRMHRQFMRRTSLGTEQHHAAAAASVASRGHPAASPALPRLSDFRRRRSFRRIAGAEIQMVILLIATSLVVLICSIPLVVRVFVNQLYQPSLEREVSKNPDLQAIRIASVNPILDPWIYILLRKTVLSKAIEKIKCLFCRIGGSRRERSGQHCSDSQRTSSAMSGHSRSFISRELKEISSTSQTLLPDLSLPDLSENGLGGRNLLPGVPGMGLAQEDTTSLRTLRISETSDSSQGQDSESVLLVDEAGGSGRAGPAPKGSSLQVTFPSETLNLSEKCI
reported_property: Ki (pM)

# cpd_smiles, reported_property, quantity_unit, endpoint_value
data = [
    ("Cc1ccc(S(=O)(=O)NC(=O)NCCc2ccc(-c3c(C(=O)N(C)C)sc4c(C)cc(C)cc34)cc2)cc1", "Ki", "pM", 540),
    ("Cc1cc(C)c2sc(C(=O)N(C)C)c(-c3ccc(CCNC(=O)OC(C)(C)C)cc3)c2c1", "Ki", "pM", 68000),
    ("CNC(=O)c1sc2c(C)cc(C)cc2c1-c1ccc(CCNC(=O)NS(=O)(=O)c2ccc(C)cc2)cc1", "Ki", "pM", 500),
    ("Cc1ccc(S(=O)(=O)NC(=O)NCCc2ccc(-c3c(C(N)=O)sc4c(C)cc(C)cc34)cc2)cc1", "Ki", "pM", 3800),
    ("COc1ccccc1CC(=O)NCCc1ccc(-c2c(C(=O)N(C)C)sc3c(C)cc(C)cc23)cc1", "Ki", "pM", 200),
    ("Cc1cc(C)c2sc(C(=O)N(C)C)c(-c3ccc(-c4nn[nH]n4)cc3)c2c1", "Ki", "pM", 160000),
    ("Cc1ccc(S(=O)(=O)NC(=O)NCCc2ccc(-c3c(C(=O)N(C)C)sc4c(C)ccc(C)c34)cc2)cc1", "Ki", "pM", 770),
    ("COC(=O)c1sc2c(C)cc(C)cc2c1-c1ccc(CCNC(=O)NS(=O)(=O)c2ccc(C)cc2)cc1", "Ki", "pM", 970),
    ("Cc1ccc(S(=O)(=O)NC(=O)NCCc2ccc(-c3c(C(=O)N(C)C)sc4c(Cl)cc(Cl)cc34)cc2)cc1", "Ki", "pM", 590),
    ("Cc1cc(C)c2sc(C(=O)N(C)C)c(-c3ccc(CCNC(=O)Cc4c(Cl)cccc4Cl)cc3)c2c1", "Ki", "pM", 1600),
    ("Cc1cc(C)c2sc(C(=O)N(C)C)c(-c3ccc(CCNc4ncccn4)cc3)c2c1", "Ki", "pM", 980),
    ("COc1ccccc1C1(C(=O)NCCc2ccc(-c3c(C(=O)N(C)C)sc4c(C)cc(C)cc34)cc2)CC1", "Ki", "pM", 3000),
    ("Cc1ccc(S(=O)(=O)NC(=O)NCCc2ccc(-c3c(C(=O)N4CCCC4)sc4c(C)cc(C)cc34)cc2)cc1", "Ki", "pM", 410),
    ("Cc1cc(C)c2sc(C(=O)N(C)C)c(-c3ccc(CCNC(=O)NS(=O)(=O)c4ccc(Cl)cc4)cc3)c2c1", "Ki", "pM", 400),
    ("Cc1cc(C)c2sc(C(=O)N(C)C)c(-c3ccc(CCNC(=O)Cc4ccccn4)cc3)c2c1", "Ki", "pM", 2300),
    ("Cc1ccc(S(=O)(=O)NC(=O)NCCc2ccc(-c3c(C(=O)N(C)C)sc4c(Cl)cc(C(F)(F)F)cc34)cc2)cc1", "Ki", "pM", 550),
    ("Cc1ccc(S(=O)(=O)NC(=O)NCCc2ccc(-c3c(C(=O)N(C)C)sc4c(F)cc(F)cc34)cc2)cc1", "Ki", "pM", 530),
    ("Cc1cc(C)c2sc(C(=O)N(C)C)c(-c3ccc(CCNC(=O)NS(=O)(=O)c4ccccc4Cl)cc3)c2c1", "Ki", "pM", 420),
]

Source of measurements: ChEMBL document CHEMBL1641502
